# SYSTEM UNDER TEST: SHP2 (Homo sapiens (Human))
# MEASUREMENT PROTOCOL: SHP2 allosteric inhibition assay (DiFMUP prompt fluorescence)
QUANTITY MEASURED: IC50 (µM)
The figure you give is taken to be in µM; do not add the unit.

Would you please look over these solved cases?
C[C@@H]1OCC2(CCN(c3cnc(-c4cccc(Cl)c4Cl)c(N)n3)CC2)[C@@H]1N [compound 7]; 0.039
CC[C@@H]1OCC2(CCN(c3cnc(Sc4ccnc(N)c4Cl)c(N)n3)CC2)[C@@H]1N [compound 17]; 0.009
C[C@@H]1OCC2(CCN(c3cnc(Sc4cc(N)nc(Cl)c4Cl)cn3)CC2)[C@@H]1N [compound 21]; 0.014

Turning now to a further molecule:
// query IC50 value for entry Nc1nc(N2CCC(N)(CF)CC2)cnc1Sc1cccc(NC(=O)c2c(O)nc3ccccn3c2=O)c1Cl [compound 52]
0.005

* * *

# SYSTEM UNDER TEST: SHP2 (Homo sapiens (Human), UniProt Q06124)
# Sequence (Q06124 whole entry): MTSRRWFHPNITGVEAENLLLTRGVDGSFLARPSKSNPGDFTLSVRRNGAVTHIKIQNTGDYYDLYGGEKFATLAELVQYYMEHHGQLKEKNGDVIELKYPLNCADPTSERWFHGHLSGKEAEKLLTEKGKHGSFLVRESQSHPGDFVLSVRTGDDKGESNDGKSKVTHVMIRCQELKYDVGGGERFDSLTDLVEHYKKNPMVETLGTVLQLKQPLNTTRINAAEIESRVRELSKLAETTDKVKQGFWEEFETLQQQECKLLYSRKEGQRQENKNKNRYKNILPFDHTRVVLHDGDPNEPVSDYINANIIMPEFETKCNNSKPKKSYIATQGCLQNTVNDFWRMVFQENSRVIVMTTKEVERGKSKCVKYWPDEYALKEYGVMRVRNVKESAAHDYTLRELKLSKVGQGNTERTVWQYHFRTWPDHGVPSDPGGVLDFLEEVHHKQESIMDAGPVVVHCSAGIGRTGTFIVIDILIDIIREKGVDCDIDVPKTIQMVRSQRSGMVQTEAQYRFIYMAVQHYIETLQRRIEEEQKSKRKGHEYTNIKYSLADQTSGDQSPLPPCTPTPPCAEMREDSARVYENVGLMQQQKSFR
# MEASUREMENT PROTOCOL: SHP2 allosteric inhibition assay (DiFMUP prompt fluorescence)
QUANTITY MEASURED: pIC50
Scale for pIC50: -log10 of concentration given in mol/L; no unit attached.

Here's what some known entries look like.
CC1CCC2(CCN(c3cnc(Sc4ccnc(N)c4Cl)cn3)CC2)[C@@H]1N (some centres unmarked); 8.22
Cn1c(N2CCC3(CCC[C@H]3N)CC2)nc2n[nH]c(-c3cccc(Cl)c3Cl)c2c1=O; 7.59
Nc1nccc(Sc2cnc(N3CCC4(CC3)COC[C@H]4N)cn2)c1Cl; 8.22
Nc1nccc(Sc2cnc(N3CCC4(CC3)C[C@@H](O)C[C@H]4N)cn2)c1Cl; 8.35
CC1(N)CCN(c2cnc(Sc3cccc(NC(=O)C4=C(O)CN(c5ccccc5)C4=O)c3Cl)c(N)n2)CC1; 8.40

I'd like to know its pIC50. The molecule in question is CC1CCC2(CCN(c3cnc(Sc4ccnc(N)c4Cl)c(N)n3)CC2)[C@@H]1N (some centres unmarked)
8.05

Which pIC50 is reported for this molecule? "Nc1nc(N2CCC3(CCCN3)CC2)cnc1-c1cccc(Cl)c1Cl"
6.81

Recorded pIC50 for "C[C@@H]1OCC2(CCN(c3cnc(Sc4ccnc(N)c4Cl)cn3)CC2)[C@@H]1N" , please?
8.10
